- Test system: IGROV1 ovarian
- test description: NCI-60 one-dose screen, 48 h
- condition notes: 10 µM unless noted
About 83,000 compounds went through this panel and 20% of them were active in at least one assay; those are over-represented in the sample as a whole. Calls of active or inactive are those of the source. Rule for the calls: active = growth percent below 10; inactive = the rest.
Result category, one only: 1.0 for active, 0.0 for inactive

Illustrative cases are given below, each with its answer.
| compound | label |
| --- | --- |
| N=C(N)c1ccc(S(N)(=O)=O)cc1 | 0.0 |
| CN(C)c1ccc(C(=O)c2ccc(N(C)C)c(N)c2)cc1N | 0.0 |
| CCCCC[C@H]1C/C=C2/C(=O)C=C[C@@H]2C/C=C\CCCC(=O)O[C@@H](CCCCC)C/C=C2/C(=O)C=C[C@@H]2C/C=C\CCCC(=O)O1 | 1.0 |
| CC1(C)C=CC[C@]2(C)[C@H]3CC[C@@H]4[C@H]5[C@H](C(=O)/C=C/c6cccnc6)CC[C@]5(CO)CC[C@@]4(C)[C@]3(C)CC[C@@H]12 | 1.0 |
| CCN1CCN(C(=O)[C@]23CCC(C)(C)C[C@H]2C2=CC[C@@H]4[C@@]5(C)CC/C(=N/O)C(C)(C)[C@@H]5CC[C@@]4(C)[C@]2(C)CC3)CC1 | 0.0 |
| COc1cccc(-c2nn(-c3ccccc3)cc2-c2ccnc(NCCCNS(=O)(=O)c3cccc(F)c3)c2)c1 | 0.0 |

Task: Field: outcome | Entry: Nc1c2c(nc3ccc(Br)cc13)CC(c1ccccc1)CC2=O (stereo not given)
Output: 0.0

Task: Field: outcome | Entry: CCN(CC)CCCCCNc1cc(OC(=O)c2ccccc2)cc2cccnc12
Output: 0.0

Task: Field: outcome | Entry: NC(=O)NCC1CCCCC1
Output: 0.0

Task: Field: outcome | Entry: C[C@]12CC[C@@H]3c4ccc(O)cc4CC[C@H]3[C@@H]1C[C@H](O)[C@@H]2O
Output: 0.0

Task: Field: outcome | Entry: N=C(N)N=Nc1ccc(O)cc1
Output: 0.0

Task: Field: outcome | Entry: Cc1csc(Nc2nc(-c3ccc(Cl)cc3)nc(C(Cl)(Cl)Cl)n2)n1
Output: 0.0

Task: Field: outcome | Entry: Cn1cc(-c2csc(-c3cn(CCNC(=O)OC(C)(C)C)c4ccc(F)cc34)n2)c2cccnc21
Output: 0.0

Task: Field: outcome | Entry: Oc1cccc2oc(=S)[nH]c12
Output: 0.0

Task: Field: outcome | Entry: COc1cc(-c2nc(-c3ccccc3)c(-c3ccccc3)[nH]2)cc(OC)c1O
Output: 0.0

Task: Field: outcome | Entry: Brc1ccc(Cn2nnnc2-c2ccn(-c3ccccc3)n2)cc1
Output: 0.0

Task: Field: outcome | Entry: N#Cc1c(-c2ccc(O)cc2)c2c(N)nn(-c3ccccc3)c2[nH]c1=O
Output: 0.0

----------
- Test system: NCI-H460 lung
- test description: NCI-60 one-dose screen, 48 h (100 = growth as untreated, 0 = no growth, -100 = all killed)
- condition notes: 10 µM unless noted
Compounds without any hit were thinned out: in the full panel of roughly 83,000, 20% have a hit.
measurement kind: growth (%)
Give bare numbers, in %.

Please review the entries below; each comes with its answer.
| compound structure | growth (%) |
| --- | --- |
| N#C/C(=C\c1ccc(-c2ccc(Br)cc2)o1)c1nc(-c2cccs2)cs1 | 103 |
| O=C1C=Cc2ncccc2C1=O | 111 |
| CC1(C)CC[C@]2(C(=O)NCCNCCN)CC[C@]3(C)C(=CC[C@@H]4[C@@]5(C)CCC(=O)C(C)(C)[C@@H]5CC[C@]43C)[C@@H]2C1 | -55.8 |
| COc1cc(-c2cc3cc(O)ccc3oc2=O)cc(OC)c1OC | 107 |
| COc1cc2nc(Cl)nc(Nc3cccc(C(=O)/C=C/c4ccc(F)cc4)c3)c2cc1OC | 95.4 |
| C=C(C)[C@@H]1CC[C@]2(C)[C@H](CC=C3[C@@H]4CC(C)(C)CC[C@]4(C=O)CC[C@]32C)[C@@]1(C)CCCN | 86.3 |
| CCOc1ccc(NC(=O)c2ccccc2-c2ccccc2C(=O)O)cc1 | 113 |
| COc1cnc2c(c1)C(=O)c1c-2n(CCCNCCN2CCOCC2)c(=O)c2cc([N+](=O)[O-])ccc12 | -55.2 |
| COc1ccccc1-n1cnc(N)c1C(=O)c1cc(OC)c(OC)c(OC)c1 | 14.5 |

Turning now to a further molecule:
Task: Record request: growth value, item Cc1cc(Cl)nc(N(CCCNc2ccnc3cc(Cl)ccc23)Cc2ccco2)n1
Output: 16.7

----------
- System: SK-OV-3 ovarian
- test description: NCI-60 one-dose screen, 48 h (100 = growth as untreated, 0 = no growth, -100 = all killed)
- condition notes: 10 µM unless noted
The panel holds about 83,000 compounds, 20% with a hit somewhere; the sample as a whole holds those more often.
Task for the reader: assign each of the following molecules its reported growth.
Give bare numbers, in %.

Hi, could you look up growth for each item in my list?
1. COC(=O)[C@]12CC[C@@H](C)[C@H](C)[C@@H]1C1=CC(=O)[C@@H]3[C@@]4(C)C[C@@H](OC(C)=O)[C@H](OC(C)=O)[C@@](C)(COC(C)=O)[C@@H]4C(=O)C[C@@]3(C)[C@]1(C)CC2
2. Cc1cc(N=O)cc(C(C)(C)C)c1O
3. COc1cccc(-c2nn(-c3ccccc3)cc2-c2ccnc(NCCNS(=O)(=O)c3cccc(F)c3)c2)c1
4. Nc1ccc(Cl)cn1

Output:
1. 76.4
2. 75.8
3. 46.6
4. 93.6

----------
- Tested on: NCI-H23 lung
- test description: NCI-60 one-dose screen, 48 h (100 = growth as untreated, 0 = no growth, -100 = all killed)
- condition notes: 10 µM unless noted
The panel holds about 83,000 compounds, 20% with a hit somewhere; the sample as a whole holds those more often. The source made the active and inactive calls. How the source made its calls: active means growth percent below 10; inactive means the rest.
measurement kind: growth

| compound | growth |
| --- | --- |
| COc1ccc(OCC(CO)N2CCN(c3ccccc3)CC2)cc1 (stereo not given) | 103% (inactive) |

Hi, could you look up growth for each item in my list?
1. O=C(NCN1C(=O)c2cccc3cccc(c23)C1=O)N1CCC(Cc2ccccc2)CC1
2. O=C1NC(c2ccc(Cl)c(Cl)c2)=C/C1=C\c1ccccc1
3. NC1(N)C=CC2=C(C=C1)C1(N)C3=C(C=CC(N)(N)C=C3)N2C2(N)C3=C(C=CC(N)(N)C=C3)N1C1=C2C=CC(N)(N)C=C1
4. CCCCN1CCCCn2c1nc1c2c(=O)n(C)c(=O)n1C
5. CCCCC[C@H]1C/C=C2/C(=O)C(Cl)=C[C@@H]2C/C=C\CCCC(=O)O1

Output:
1. 93.9% (inactive)
2. 84.8% (inactive)
3. 79.5% (inactive)
4. 108% (inactive)
5. -34.5% (active)

Hi, could you look up growth for each item in my list?
1. N#Cc1c(-c2ccco2)nc2c(c(-c3ccccc3)nn2-c2ccccc2)c1-c1ccc(O)cc1
2. Oc1ccccc1/C=N\NC(=S)Nc1ccc(F)cc1
3. Cn1cc(-c2csc(-c3c[nH]c4ccccc34)n2)c2cccnc21
4. Cc1cc2nc3c4cc(O)ccc4n(CCN(C)C)c3nc2cc1C
5. CC(C)=CCC/C(C)=C/CC/C(C)=C/CC/C(C)=C/CSC[C@H](NC(=O)CCCCCN1CCN(C)CC1)C(=O)NC1CCCCC1
6. CC(=O)NC1=C(C#N)C(c2ccccc2Cl)c2c(ccc3ccccc23)O1 (stereo not given)

Output:
99.7% (inactive)
30.4% (inactive)
30.3% (inactive)
-35.3% (active)
73% (inactive)
76.2% (inactive)

Hi, could you look up growth for each item in my list?
1. CC(=O)Oc1ccccc1C(=O)/C=C/c1cccc([N+](=O)[O-])c1
2. COC(=O)c1cc(=O)nc(N/N=C/c2ccc(C)cc2)s1
3. COc1cccc(-c2nn(-c3ccccc3)cc2-c2ccnc(NCCCNS(=O)(=O)c3ccc(C(F)(F)F)cc3)c2)c1
4. CC1=CC(=O)N(c2cccc3c(N4C(=O)C=C(C)C4=O)cccc23)C1=O
5. Nc1nc2c3ccncc3cc(-c3cccc(Cl)c3)c2c2cnccc12
6. Cc1cccc(C)c1NCc1nc(-c2ccccc2)n[nH]1

Output:
1: 87.9% (inactive); 2: 107% (inactive); 3: 28.6% (inactive); 4: 79.4% (inactive); 5: 66.8% (inactive); 6: 97.9% (inactive)

Hi, could you look up growth for each item in my list?
1. Cc1cc(N2CCN(C)CC2)nc(N(CCNc2ccnc3cc(Cl)ccc23)Cc2ccco2)n1
2. CC(=O)OCCCCCCn1c2ccccc2c2c3c(c4c5ccccc5n(C)c4c21)C(=O)N(O)C3=O

Output:
1: 57.5% (inactive); 2: 68% (inactive)
